Hi, quick share: literature IC50 data for Prostaglandin G/H synthase 1 (Homo sapiens), several sources combined.

{"compound": "O=C(O)C1=Cc2cc(Cl)c(I)cc2OC1C(F)(F)F (stereo not shown)", "study_system": "Prostaglandin G/H synthase 1 (Homo sapiens)", "IC50": "> 100 µM"}
{"compound": "O=C(O)C1=Cc2ccc(Cc3ccc(F)c(F)c3)cc2OC1C(F)(F)F (stereo not shown)", "study_system": "Prostaglandin G/H synthase 1 (Homo sapiens)", "IC50": "> 100 µM"}
{"compound": "O=C(O)C1=Cc2cc(Cl)c(OCC3CCCC3)cc2OC1C(F)(F)F (stereo not shown)", "study_system": "Prostaglandin G/H synthase 1 (Homo sapiens)", "IC50": "44.3 µM"}
{"compound": "C=Cc1cc(Cl)cc2c1OC(C(F)(F)F)C(C(=O)O)=C2 (stereo not shown)", "study_system": "Prostaglandin G/H synthase 1 (Homo sapiens)", "IC50": "< 0.1 µM"}
{"compound": "O=C(O)C1=Cc2cc(Cl)c(Sc3ccccc3)cc2OC1C(F)(F)F (stereo not shown)", "study_system": "Prostaglandin G/H synthase 1 (Homo sapiens)", "IC50": "2.6 µM"}
{"compound": "Cc1ccc(Cc2cc3c(cc2Cl)C=C(C(=O)O)C(C(F)(F)F)O3)cc1Cl (stereo not shown)", "study_system": "Prostaglandin G/H synthase 1 (Homo sapiens)", "IC50": "4.69 µM"}
{"compound": "O=C(O)C1=Cc2cc(Cl)c(-c3ccccc3)cc2OC1C(F)(F)F (stereo not shown)", "study_system": "Prostaglandin G/H synthase 1 (Homo sapiens)", "IC50": "3.8 µM"}
{"compound": "CC(C)CCSc1cc2c(cc1Cl)C=C(C(=O)O)C(C(F)(F)F)O2 (stereo not shown)", "study_system": "Prostaglandin G/H synthase 1 (Homo sapiens)", "IC50": "> 100 µM"}
{"compound": "Cc1cccc(C)c1Oc1cc2c(cc1Cl)C=C(C(=O)O)C(C(F)(F)F)O2 (stereo not shown)", "study_system": "Prostaglandin G/H synthase 1 (Homo sapiens)", "IC50": "37.4 µM"}
{"compound": "CC(C)(C#N)c1cc2c(cc1Cl)C=C(C(=O)O)C(C(F)(F)F)O2 (stereo not shown)", "study_system": "Prostaglandin G/H synthase 1 (Homo sapiens)", "IC50": "> 100 µM"}
{"compound": "O=C(O)C1=Cc2cc(Cl)c(O)c(Cl)c2OC1C(F)(F)F (stereo not shown)", "study_system": "Prostaglandin G/H synthase 1 (Homo sapiens)", "IC50": "> 500 µM"}
{"compound": "O=C(O)C1=Cc2cc(Cl)c(Oc3ccc4cc(Br)ccc4c3)cc2OC1C(F)(F)F (stereo not shown)", "study_system": "Prostaglandin G/H synthase 1 (Homo sapiens)", "IC50": "44.8 µM"}
{"compound": "O=C(O)C1=Cc2cc(Cl)c(Oc3ccc(C(F)(F)F)cc3)cc2OC1C(F)(F)F (stereo not shown)", "study_system": "Prostaglandin G/H synthase 1 (Homo sapiens)", "IC50": "32.8 µM"}
{"compound": "COc1ccc(Cc2cc3c(cc2Cl)C=C(C(=O)O)C(C(F)(F)F)O3)cc1 (stereo not shown)", "study_system": "Prostaglandin G/H synthase 1 (Homo sapiens)", "IC50": "99.9 µM"}
{"compound": "O=C(O)C1=Cc2cc(-c3ccc(F)cc3)ccc2NC1C(F)(F)F (stereo not shown)", "study_system": "Prostaglandin G/H synthase 1 (Homo sapiens)", "IC50": "42.7 µM"}
{"compound": "O=C(O)C1=Cc2cc(Cl)c(Cc3ccccc3Cl)cc2OC1C(F)(F)F (stereo not shown)", "study_system": "Prostaglandin G/H synthase 1 (Homo sapiens)", "IC50": "0.425 µM"}
{"compound": "Cc1cc(Cl)cc2c1OC(C(F)(F)F)C(C(=O)O)=C2 (stereo not shown)", "study_system": "Prostaglandin G/H synthase 1 (Homo sapiens)", "IC50": "57 µM"}
{"compound": "O=C(O)C1=Cc2c(F)ccc(Br)c2OC1C(F)(F)F (stereo not shown)", "study_system": "Prostaglandin G/H synthase 1 (Homo sapiens)", "IC50": "> 100 µM"}
{"compound": "Cc1cc(-c2cc(C(F)(F)F)nn2-c2ccc(S(N)(=O)=O)cc2)ccc1Cl", "study_system": "Prostaglandin G/H synthase 1 (Homo sapiens)", "IC50": "4.92 µM"}

---

pIC50: −log10 of the molar value.
Across several publications, the following pIC50 results were reported for Prostaglandin G/H synthase 1 (Homo sapiens).
quantity_kind: pIC50

{"compound": "COc1c(Cl)cc2c(c1OC)OC(C(F)(F)F)C(C(=O)O)=C2 (centres unmarked)", "quantity_kind": "pIC50", "qualifying_sign": "<", "quantitative_result": 3.30}
{"compound": "COc1c(C)cc(-c2cc(C(F)(F)F)nn2-c2ccc(S(N)(=O)=O)cc2)cc1C", "quantity_kind": "pIC50", "qualifying_sign": "<", "quantitative_result": 4.00}
{"compound": "O=C(O)C1=Cc2cc(OC(F)(F)F)ccc2O[C@@H]1C(F)(F)F", "quantity_kind": "pIC50", "qualifying_sign": "=", "quantitative_result": 5.17}
{"compound": "O=C(O)C1=Cc2cc(Cl)c(Oc3cccnc3Cl)cc2OC1C(F)(F)F (centres unmarked)", "quantity_kind": "pIC50", "qualifying_sign": "=", "quantitative_result": 4.55}
{"compound": "O=C(O)C1=Cc2cc(Cl)c(OCc3ccccc3)cc2OC1C(F)(F)F (centres unmarked)", "quantity_kind": "pIC50", "qualifying_sign": "<", "quantitative_result": 4.00}
